Every entry's value here was drawn from PubChem BioAssay.

- subject of test: Nuclear receptor coactivator 1 (Homo sapiens) (UniProt Q15788)
- Sequence (Q15788 whole entry, looked up): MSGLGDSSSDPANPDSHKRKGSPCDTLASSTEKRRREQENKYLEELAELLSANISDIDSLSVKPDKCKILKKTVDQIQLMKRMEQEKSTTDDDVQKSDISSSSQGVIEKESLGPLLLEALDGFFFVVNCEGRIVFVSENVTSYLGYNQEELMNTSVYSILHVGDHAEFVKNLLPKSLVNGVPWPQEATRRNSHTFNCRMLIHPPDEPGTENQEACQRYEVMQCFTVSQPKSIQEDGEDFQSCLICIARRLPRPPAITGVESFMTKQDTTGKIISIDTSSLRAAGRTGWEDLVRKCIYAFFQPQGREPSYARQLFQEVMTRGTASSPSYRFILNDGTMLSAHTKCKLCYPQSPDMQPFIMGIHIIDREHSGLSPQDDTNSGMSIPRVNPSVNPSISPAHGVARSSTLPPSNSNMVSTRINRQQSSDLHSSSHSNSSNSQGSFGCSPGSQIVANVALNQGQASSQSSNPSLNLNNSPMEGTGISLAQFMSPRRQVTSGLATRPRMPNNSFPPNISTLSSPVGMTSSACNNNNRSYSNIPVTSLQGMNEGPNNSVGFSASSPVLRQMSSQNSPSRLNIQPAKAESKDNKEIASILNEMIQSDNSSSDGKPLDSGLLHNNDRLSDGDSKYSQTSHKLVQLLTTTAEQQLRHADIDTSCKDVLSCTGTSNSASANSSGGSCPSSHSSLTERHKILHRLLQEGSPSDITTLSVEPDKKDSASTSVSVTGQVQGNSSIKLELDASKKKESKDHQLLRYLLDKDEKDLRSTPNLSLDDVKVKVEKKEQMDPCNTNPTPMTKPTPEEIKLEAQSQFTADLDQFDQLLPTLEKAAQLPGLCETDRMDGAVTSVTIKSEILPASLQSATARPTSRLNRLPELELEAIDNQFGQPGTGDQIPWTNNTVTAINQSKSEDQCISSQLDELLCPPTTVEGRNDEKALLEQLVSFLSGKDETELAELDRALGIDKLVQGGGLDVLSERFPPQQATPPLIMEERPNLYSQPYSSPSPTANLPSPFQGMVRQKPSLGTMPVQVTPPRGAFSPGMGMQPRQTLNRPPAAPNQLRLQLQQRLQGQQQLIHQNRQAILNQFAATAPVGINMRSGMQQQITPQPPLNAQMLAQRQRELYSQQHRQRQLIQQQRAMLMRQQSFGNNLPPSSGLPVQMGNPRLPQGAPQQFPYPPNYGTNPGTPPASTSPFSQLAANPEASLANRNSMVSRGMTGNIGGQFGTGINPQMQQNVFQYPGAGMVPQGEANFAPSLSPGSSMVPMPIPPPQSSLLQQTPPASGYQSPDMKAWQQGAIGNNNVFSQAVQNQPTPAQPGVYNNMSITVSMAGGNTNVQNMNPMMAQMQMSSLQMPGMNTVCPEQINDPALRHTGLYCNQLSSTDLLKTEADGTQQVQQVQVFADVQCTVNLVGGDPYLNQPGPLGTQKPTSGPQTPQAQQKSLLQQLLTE
- measurement description: SRC1 coactivator transcriptional activity inhibitors, confirmation, cell-based, luminescence, quadruplicate (AID 588820)
- test parameters: HEK293 GAL4-SRC1 luciferase reporter, at 3.6 µM
Active and inactive are the calls of the source.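 How the source made its calls: active means mean inhibition above 46.68%, the untreated control wells mean plus 3 SD; inactive means the rest.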
Classes to choose from: active, inactive

compound="CCC(C)C1NC(=O)C(NC(=O)C(CC(C)C)N(C)C(=O)C2CCCN2C(=O)C(C)O)C(C)OC(=O)C(Cc2ccc(OC)cc2)N(C)C(=O)C2CCCN2C(=O)C(CC(C)C)NC(=O)[C@H](C)C(=O)[C@H](C(C)C)OC(=O)CC1O (stereo partly drawn)" category_label=active

Turning to the following compound.
Hello, I am checking results. What call was entered for COc1ccc(-n2nnnc2C(CCc2ccccc2)N2CCC(n3c(=O)[nH]c4ccccc43)CC2)cc1 (stereo not drawn) ?
inactive
